Consider the following compounds; for each one, report its Ratio of IC50 in the presence of dipyridamole / IC50 in the absence of dipyridamole.
test system: PANC-01 human pancreatic cancer cell line; test: Cell growth assay (SRB) in PANC-01; assay type: cell-based; settings: 4-N-acyl and 4-N-phosphoryl derivatives (Table 5)

See these solved cases before continuing.
C#CCOC(=O)Nc1ccn(C2OC(CO)C(O)C2(F)F)c(=O)n1 (stereo not drawn): 2.7
CC(COC(=O)Nc1ccn(C2OC(CO)C(O)C2(F)F)c(=O)n1)c1ccccc1[N+](=O)[O-] (stereo not drawn): 4
COc1cc(COC(=O)Nc2ccn(C3OC(CO)C(O)C3(F)F)c(=O)n2)c([N+](=O)[O-])cc1OC (stereo not drawn): 3.3
CCOC(=O)Nc1ccn(C2OC(CO)C(O)C2(F)F)c(=O)n1 (stereo not drawn) [Derivative 1, Ethyl-(4-N-Gemcitabine) carbamate]: 4.1
O=C(Nc1ccn(C2OC(CO)C(O)C2(F)F)c(=O)n1)OCc1cn(C2=CC3C=CC(O)=CC3OC2=O)nn1 (stereo not drawn): 4.6

// each listed compound needs a value for Ratio of IC50 in the presence of dipyridamole / IC50 in the absence of dipyridamole
1. CCCCOC(=O)Nc1ccn(C2OC(CO)C(O)C2(F)F)c(=O)n1 (stereo not drawn)
2. CC(C)COC(=O)Nc1ccn(C2OC(CO)C(O)C2(F)F)c(=O)n1 (stereo not drawn)
3. Nc1ccn([C@@H]2O[C@H](CO)[C@@H](O)C2(F)F)c(=O)n1 [Gemcitabine, 2′,2′-difluoro-2′-deoxycytidine, reference compound]
4. O=C1OCCN1c1ccn(C2OC(CO)C(O)C2(F)F)c(=O)n1 (stereo not drawn)

[reply]
1. 2.4
2. 4.2
3. 3.4
4. 23
